measurement_name: melting point

• Cc1cc(C(C)(C)C)c(O)c(S(N)(=O)=O)c1 = 114 to 116 °C
• O=C(C#Cc1ccc(C(F)(F)F)cc1Cl)Nc1ccc2nc(N3CCCCC3)ccc2c1 = 176 to 179 °C
• CC(C)CN(CC(C)C)C(=O)c1c([N+](=O)[O-])cccc1[N+](=O)[O-] = 97 to 99 °C
• CN(C)C(=O)Cc1cccc(NC(=O)N(C)C)c1 = 80 to 81 °C
• FC(F)(F)c1ccc(-c2cc(C(F)(F)F)n3cnc(-c4ccncc4)c3n2)cc1C(F)(F)F = 211 °C
• O=S(=O)(c1ccc(Cl)cc1)C(CCSCCO)c1cc(F)ccc1F (stereo not drawn) = 108 to 110 °C
• Nc1ncc(CCN2CCC(C(=O)c3ccc(F)cc3)CC2)c(O)n1 = 256 °C
• Cc1ccc(S(=O)(=O)ON=C2C3=C(C=C4OCCC42)CCCO3)cc1 (stereo not drawn) = 118 °C
• CN(C)c1c(F)c(F)c(F)c2c1c(=O)c(C(=O)O)cn2C1CC1 = 160 to 163 °C
• On1c(-c2ccc(F)cc2)nc2ccc(Cn3ccnc3)cc21 = 82 °C
• COCCNc1sc(-c2cc[nH]n2)c2c1C(=O)CC(C)(C)C2 = 171 to 173 °C
• CC(NC(=O)c1ccc(NC(=O)c2ccccc2SSc2ccccc2C(=O)Nc2ccc(C(=O)NC(C)C(=O)O)cc2)cc1)C(=O)O (stereo not drawn) = 265 °C
• CCN(c1ccc(C#N)cc1Cl)S(=O)(=O)c1ccc(C)cc1 = 112 to 114 °C
• COc1ccc(C(=O)Cc2ccncc2)cc1OC1CCCC1 = 102 to 103 °C
• [N-]=[N+]=Nc1ccnc2c(NC(=O)c3c(Cl)cccc3Cl)cccc12 = 188 to 193 °C
• COc1ccc(Br)cc1-c1cc(-c2cccc(Br)c2)no1 = 156 °C
• O=C(O)CCc1cc(Cl)ccc1C(=O)O = 156 to 158 °C
• COc1ccc(-c2cnc3cc4cn(Cc5ccccc5)nc4cc3n2)cc1F = 225 to 227 °C
• CCCCS(=O)(=O)OCCN(CCBr)c1c(C(=O)NCCOP(=O)(O)O)cc([N+](=O)[O-])cc1[N+](=O)[O-] = 123 to 125 °C
• O=[N+]([O-])c1ccccc1C=[N+]([O-])c1cccc(CO)c1 = 97 to 99 °C
• O=C1NC(=O)c2c(Br)c(Sc3ccc(Cl)cc3)c(Sc3ccc(Cl)cc3)c(Br)c21 = 310 to 315 °C
• CN(C)CCCC1CCCN(C(=O)N2c3ccccc3C(=O)Nc3cccnc32)C1 (stereo not drawn) = 115 to 117 °C
• O=C(O)CCCNC(=O)c1ccccc1SSc1ccccc1C(=O)NCCCC(=O)O = 165 to 166 °C
• CCOC(=O)c1ccc2n1Cc1ccccc1N(C(=O)c1ccc(NC(=O)c3ccc(Cl)cc3Cl)c(C)c1)C2 = 174 to 184 °C
• O=C(COc1ccc(Cl)cc1)N1CCc2occc2C1CN1CCC(O)C1 (stereo not drawn) = 43 to 45 °C
• COc1ccc(Nc2nc(OCC3CCCCC3)c3[nH]cnc3n2)cc1 = 189 to 192 °C
• O=C(O)c1ccc(SC(=O)c2ccc(O)c(C34CC5CC(CC(C5)C3)C4)c2)cc1 = 272 to 274 °C
• CCCCCCCCCCCCCCCCCCN1CC(O)C1 = 75.5 to 78 °C
• CN1C(=O)C2=C(c3ccc([N+](=O)[O-])cc3)OC(=O)C2=C1c1ccccc1 = 253 to 255 °C
• COc1ccc(-c2[nH]cnc2-c2cc(OC)c(N)c(OC)c2)cc1O = 142 to 144 °C
• Cc1nc(-n2cnn(CCNCc3ccc(F)cc3)c2=O)sc1C(=O)NCc1cccnc1 = 106 to 107 °C
• CC(=O)c1cccc(-c2cc3c4cc(C)ccc4[nH]c3n(C)c2=O)c1 = 258 to 260 °C
• O=C(O)C1=Cc2ccc(C(F)(F)F)cc2OC1C(F)(F)F (stereo not drawn) = 190 to 194 °C
• Clc1ccc2ccc(/C=C/c3ccc(CN4CCc5cccc(CCc6nnn[nH]6)c54)cc3)nc2c1 = 83 to 87 °C
• O=c1[nH]c2ccc3c(c2[nH]c1=O)CNCC3 = 294 to 297 °C
• CC(C)n1c(C=O)c(-c2ccc(F)cc2)c(-c2ccc(F)cc2)c1C(=O)Nc1cccc(C(=O)N(C)C)c1 = 133 to 135 °C
• CNC(=O)Cc1cccc2c(=O)cc(C3=CCCCC3)oc12 = 213 to 214 °C
• Cc1oc(-c2ccccc2)nc1COc1cc(F)cc(CN(O)C(N)=O)c1 = 157 to 158 °C

From: a melting point compilation (Tetko et al.; mined from patent text by program, amines drawn as free bases though some values may be those of a salt)
